- measurementTarget: Human ADA (Homo sapiens, UniProt P00813)
- Sequence (P00813 whole entry): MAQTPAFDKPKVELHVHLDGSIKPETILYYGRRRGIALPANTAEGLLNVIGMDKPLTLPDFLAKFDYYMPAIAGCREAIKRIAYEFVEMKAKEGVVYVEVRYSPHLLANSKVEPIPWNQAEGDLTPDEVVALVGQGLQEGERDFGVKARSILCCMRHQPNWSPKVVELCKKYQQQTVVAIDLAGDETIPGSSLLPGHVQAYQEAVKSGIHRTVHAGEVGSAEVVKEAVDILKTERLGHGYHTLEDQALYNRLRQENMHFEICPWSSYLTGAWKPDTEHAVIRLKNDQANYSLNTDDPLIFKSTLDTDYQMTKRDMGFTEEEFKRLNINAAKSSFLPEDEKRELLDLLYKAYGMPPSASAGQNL
pIC50: −log10 of the molar value.
measureName: pIC50

Fill in the recorded pIC50 for this compound, with Human ADA (Homo sapiens, UniProt P00813) as test system: C[C@H](O)[C@@H](CCc1ccccc1OCCCc1ccc(Cl)cc1)n1cnc(C(N)=O)c1 > 7.70
